Let's look at some variants and their measured protein stability index.
B1: PRPH (parent)
chain: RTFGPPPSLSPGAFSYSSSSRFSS

# Variants of: B1
# protocol-details: protein stability index of a GFP-peptide fusion (GPS, HEK-293T) (PSI 1-6); higher = more stable;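 further: lentivirally expressed fusions sorted by FACS into six bins by GFP to DsRed ratio, PSI derived from sequencing read proportions per bin multiplied by bin number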
# conditions: c terminus: a fixed tail appended
readout-kind: protein stability index

> print(dat)
    mutation.annotation  value.observed
 1                  L9A            3.52
 2                  R1K            2.74
 3                  S8M            2.93
 4                 S17T            3.19
 5                 S15D            3.49
 6                 S24K            3.89
 7                 S19W            2.19
 8                 F22N            3.44
 9                  F3V            3.31
10                 A13T            3.45
11                 A13L            3.18
12                 S23D             2.9
13                 A13E            3.51
14                 R21S            3.02
15                 S18L            2.59
16                 S17R            2.99
17                 S15I            2.95
18                  F3Y            3.16
19                 S23R            3.52
20                  S8L            3.14
21                 Y16R            3.92
22                 S15C            2.33
23                 S20Q            3.57
24                  P5H            2.81
25                  P6Y            2.11
26                  F3C            2.82
27                 F14A            3.53
28                  S8R            3.83
29                 A13G            3.21
30                 F14K            4.23
31                 S15F            2.43
32                 S23G             2.6
33                 R21I            2.44
34                 Y16A            3.81
35                  S8W            2.75
36                 S10C            3.45
37                  P6C            2.09
38                 S18Y            2.98
39                 F22Y            3.22
40                 S10Y            2.36
41                 A13W            2.79
42                 S23T            3.23
43                 S24T            3.23
44                  P7K            3.71
45                 F14W            3.22
46                  P6H            2.79
47                  F3D            4.09
48                 F14N            4.03
49                  T2N            2.92
50                 S24D            3.19
51                  P5E            3.23
52                 S15H            2.85
53                 Y16Q            3.62
54                 S18P            2.93
55                 S23V            2.85
56                  R1F            2.52
57                  P6D            2.86
58                 A13F            2.98
59                 S23K            3.48
60                 S10Q            3.34
61                 G12K            3.21
62                  R1G            3.25
63                 S18V            3.24
64                 F14G             3.3
65                 S10F            2.67
66                  G4D            3.36

The reported numbers originate from the supplement of paper PMC10567573.
